tested on: LAD-2 cells; experiment: LAD2 Degranulation Assay (Protocol 1), β-hexosaminidase release; format: cell-based; settings: Homo sapiens, 1 μM Cortistatin-14, 30 minute preincubation, top concentration 3 μM
value.kind: IC50 (nM)

compound | assayed.system | value.comparator | numeric.readout
C[C@@H](C(=O)Nc1cn(Cc2cc(F)cc(F)c2)c(Cl)n1)N1CCC(F)(F)[C@@H](c2cc[n+]([O-])cc2)C1 (single isomer, unassigned) | LAD-2 cells | > | 3000
C[C@H](C(=O)Nc1cn(Cc2cc(F)cc(F)c2)cn1)N1CCC(F)(F)[C@@H](c2ccc(=O)[nH]c2)C1 (single isomer, unassigned) | LAD-2 cells | = | 22
Cc1nc(NC(=O)[C@H](C)N2CCC(F)(F)[C@@H](c3cc[n+]([O-])cc3)C2)cn1Cc1ccc(F)cc1F (single isomer, unassigned) | LAD-2 cells | = | 28
C[C@H](C(=O)Nc1cn(Cc2cc(F)cc(F)c2)c(C(F)(F)F)n1)N1CCC(F)(F)[C@H](c2ccc(=O)[nH]c2)C1 (single isomer, unassigned) | LAD-2 cells | = | 51
C[C@H](C(=O)Nc1nc2ccccc2s1)N1CCC(F)(F)[C@@H](c2cc[n+]([O-])cc2)C1 (single isomer, unassigned) | LAD-2 cells | = | 100
C[C@@H](C(=O)Nc1cn(Cc2cc(F)c(F)c(F)c2)cn1)N1CCC(F)(F)[C@@H](c2cc[n+]([O-])cc2)C1 | LAD-2 cells | = | 25
